Each recorded value in this set is attributed to paper PMC6607903.

- method.description: Plasma pharmacokinetics of CUDC-101 and metabolite in patients
- Format: in vivo, human
- conditions: human, plasma, iv, 275 mg/m^2
quantity.kind: Vd (L)
# unit: L | format: bare number

Provide one value: measured Vd of C#Cc1cccc(Nc2ncnc3cc(OC)c(OCCCCCCC(=O)NO)cc23)c1 [CUDC-101] 76

###

- method.description: Plasma pharmacokinetics of CUDC-101 and metabolite in patients
- Type: in vivo, human
- conditions: human, plasma, iv, 225 mg/m2
quantity.kind: AUC(0-t) (ng·h/mL)
# unit: ng·h/mL | format: bare number

Provide one value: measured AUC(0-t) of `C#Cc1cccc(Nc2ncnc3cc(OC)c(OCCCCCCC(=O)NO)cc23)c1` 9920
